Values from ChEMBL document CHEMBL1127564

# Test system: Cavia porcellus
# assay.name: In vivo inhibitory activity against airway edema induced by Substance P at a dose 100 mg/kg administered orally
# Assay type: functional
# condition.description: route oral
inhibition in vivo at 100 mg/kg overview
# unit: % | format: bare number

The cases that follow already have their inhibition in vivo at 100 mg/kg on record.
compound	inhibition in vivo at 100 mg/kg [%]
Cc1ccc2cc(C[C@@H](NC(=O)C3C[C@@H](O)CN3C(=O)c3cn(C)c4ccccc34)C(=O)N(C)Cc3ccccc3)ccc2c1 (some centres undefined)	28
CN(Cc1ccccc1)C(=O)[C@@H](Cc1ccc(C(F)(F)F)cc1)NC(=O)C1C[C@@H](O)CN1C(=O)c1cn(C)c2ccccc12 (some centres undefined)	94
CN(Cc1ccccc1)C(=O)[C@@H](Cc1csc2ccccc12)NC(=O)C1C[C@@H](O)CN1C(=O)c1cn(C)c2ccccc12 (some centres undefined)	99

Indicate its recorded inhibition in vivo at 100 mg/kg; the compound in question is CN(Cc1ccccc1)C(=O)[C@@H](Cc1ccc(O)cc1)NC(=O)C1C[C@@H](O)CN1C(=O)c1cn(C)c2ccccc12 (some centres undefined) 11

Indicate its recorded inhibition in vivo at 100 mg/kg; the compound in question is CN(Cc1ccccc1)C(=O)[C@@H](Cc1ccccc1)NC(=O)C1C[C@@H](O)CN1C(=O)c1cn(C)c2ccccc12 (some centres undefined) 75

Indicate its recorded inhibition in vivo at 100 mg/kg; the compound in question is CN(Cc1ccccc1)C(=O)C(Cc1ccccc1)NC(=O)C1C[C@@H](O)CN1C(=O)c1c[nH]c2ccccc12 (single isomer, unassigned) 8

Indicate its recorded inhibition in vivo at 100 mg/kg; the compound in question is CN(Cc1ccccc1)C(=O)[C@@H](Cc1ccc(N)cc1)NC(=O)C1C[C@@H](O)CN1C(=O)c1cn(C)c2ccccc12 (some centres undefined) 0

Indicate its recorded inhibition in vivo at 100 mg/kg; the compound in question is CN(Cc1ccccc1)C(=O)[C@@H](Cc1cccc(F)c1)NC(=O)C1C[C@@H](O)CN1C(=O)c1cn(C)c2ccccc12 (some centres undefined) 85

Indicate its recorded inhibition in vivo at 100 mg/kg; the compound in question is CN(Cc1ccccc1)C(=O)[C@@H](Cc1ccc2ccccc2c1)NC(=O)C1C[C@@H](O)CN1C(=O)c1cn(C)c2ccccc12 (some centres undefined) 94

Indicate its recorded inhibition in vivo at 100 mg/kg; the compound in question is CN(Cc1ccccc1)C(=O)[C@@H](Cc1cccc(C(F)(F)F)c1)NC(=O)C1C[C@@H](O)CN1C(=O)c1cn(C)c2ccccc12 (some centres undefined) 66

Indicate its recorded inhibition in vivo at 100 mg/kg; the compound in question is CN(Cc1ccccc1)C(=O)[C@@H](Cc1ccc(F)cc1)NC(=O)C1C[C@@H](O)CN1C(=O)c1cn(C)c2ccccc12 (some centres undefined) 96

Indicate its recorded inhibition in vivo at 100 mg/kg; the compound in question is CN(Cc1ccccc1)C(=O)[C@@H](Cc1c[nH]c2ccccc12)NC(=O)C1C[C@@H](O)CN1C(=O)c1cn(C)c2ccccc12 (some centres undefined) 7

Indicate its recorded inhibition in vivo at 100 mg/kg; the compound in question is CN(Cc1ccccc1)C(=O)[C@@H](Cc1ccccc1F)NC(=O)C1C[C@@H](O)CN1C(=O)c1cn(C)c2ccccc12 (some centres undefined) 35

Indicate its recorded inhibition in vivo at 100 mg/kg; the compound in question is COc1ccc(C[C@@H](NC(=O)C2C[C@@H](O)CN2C(=O)c2cn(C)c3ccccc23)C(=O)N(C)Cc2ccccc2)cc1 (some centres undefined) 91

---

IC50 overview
# tested.target: Substance-P receptor (Cavia porcellus)
# assay.name: In vitro binding affinity against substance P receptor using [3H]SP as radioligand in guinea pig lung membrane
# Assay type: cell membranes

The cases that follow already have their IC50 on record.
compound	IC50
CN(Cc1ccccc1)C(=O)[C@@H](Cc1ccccc1)NC(=O)C1C[C@@H](O)CN1C(=O)CCCc1ccccc1 (some centres undefined)	32 nM
CN(Cc1ccccc1)C(=O)[C@@H](Cc1cccc(F)c1)NC(=O)C1C[C@@H](O)CN1C(=O)c1cn(C)c2ccccc12 (some centres undefined)	9.2 nM

# context switch: different compound, same IC50
Indicate its recorded IC50; the compound in question is Cc1ccc2cc(C[C@@H](NC(=O)C3C[C@@H](O)CN3C(=O)c3cn(C)c4ccccc34)C(=O)N(C)Cc3ccccc3)ccc2c1 (some centres undefined) 23 nM

---

# tested.target: UniProt P30547
# assay.name: In vitro binding affinity against substance P receptor using [3H]SP as radioligand in guinea pig lung membrane
# Assay type: cell membranes
# condition.description: read-out: IC50
pIC50: −log10 of the molar value.
Use Condition met when the recorded pIC50 is no lower than 8; use Condition not met when it is lower.

Worked set:
molecule	label
CN(Cc1ccccc1)C(=O)[C@@H](Cc1ccccc1)NC(=O)C1C[C@@H](O)CN1C(=O)c1[nH]nc2ccccc12 (some centres undefined)	Condition met
CN(Cc1ccccc1)C(=O)[C@@H](Cc1ccc(N)cc1)NC(=O)C1C[C@@H](O)CN1C(=O)c1cn(C)c2ccccc12 (some centres undefined)	Condition met
CN(Cc1ccccc1)C(=O)[C@@H](Cc1ccccc1)NC(=O)C1C[C@@H](O)CN1C(=O)c1cc2ccccc2s1 (some centres undefined)	Condition not met
CN(Cc1ccccc1)C(=O)[C@@H](Cc1ccccc1)NC(=O)C1CCCN1C(=O)c1c[nH]c2ccccc12 (some centres undefined)	Condition met
CN(Cc1ccccc1)C(=O)[C@@H](Cc1ccc(NS(C)(=O)=O)cc1)NC(=O)C1C[C@@H](O)CN1C(=O)c1cn(C)c2ccccc12 (some centres undefined)	Condition not met

Quick check: does CN(Cc1ccccc1)C(=O)[C@@H](Cc1ccccc1)NC(=O)C1C[C@@H](O)CN1C(=O)c1cn(CC(=O)O)c2ccccc12 (some centres undefined) have pIC50 greater than or equal to 8? Condition not met

Quick check: does CN(Cc1ccccc1)C(=O)[C@@H](Cc1ccccc1)NC(=O)C1CCC(O)CN1C(=O)c1c[nH]c2ccccc12 (some centres undefined) have pIC50 greater than or equal to 8? Condition not met

---

IC50 overview
# tested.target: Substance-P receptor (Cavia porcellus, UniProt P30547)
# Sequence (P30547 whole entry): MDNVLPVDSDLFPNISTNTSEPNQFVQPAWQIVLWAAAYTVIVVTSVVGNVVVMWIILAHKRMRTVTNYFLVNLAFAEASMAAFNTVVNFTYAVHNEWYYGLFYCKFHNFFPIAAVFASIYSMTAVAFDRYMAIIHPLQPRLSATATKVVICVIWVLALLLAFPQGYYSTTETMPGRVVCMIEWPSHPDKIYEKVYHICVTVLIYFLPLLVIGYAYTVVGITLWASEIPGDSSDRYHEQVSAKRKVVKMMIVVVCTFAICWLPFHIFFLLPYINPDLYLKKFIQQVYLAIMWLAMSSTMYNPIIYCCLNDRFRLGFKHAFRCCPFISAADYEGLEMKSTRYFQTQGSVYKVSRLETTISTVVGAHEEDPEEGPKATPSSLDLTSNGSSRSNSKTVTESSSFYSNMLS
# assay.name: In vitro binding affinity against substance P receptor using [3H]SP as radioligand in guinea pig lung membrane
# Format: cell membranes
# condition.description: read-out: IC50
# unit: nM | format: bare number

Indicate its recorded IC50; the compound in question is CN(Cc1ccccc1)C(=O)[C@@H](Cc1c[nH]c2ccccc12)NC(=O)C1C[C@@H](O)CN1C(=O)c1cn(C)c2ccccc12 (some centres not stated) 1.7

Indicate its recorded IC50; the compound in question is CN(Cc1ccccc1)C(=O)[C@@H](Cc1ccc2cc(Cl)ccc2c1)NC(=O)C1C[C@@H](O)CN1C(=O)c1cn(C)c2ccccc12 (some centres not stated) 27.3

Indicate its recorded IC50; the compound in question is CN(Cc1ccccc1)C(=O)[C@@H](Cc1ccc([N+](=O)[O-])cc1)NC(=O)C1C[C@@H](O)CN1C(=O)c1cn(C)c2ccccc12 (some centres not stated) 7

---

inhibition in vivo at 100 mg/kg overview
# Tested on: Cavia porcellus
# assay.name: In vivo inhibitory activity against airway edema induced by Substance P at a dose 100 mg/kg administered orally
# Format: functional
# condition.description: route oral
# unit: % | format: bare number

The cases that follow already have their inhibition in vivo at 100 mg/kg on record.
molecule	readout	measured.value
CN(Cc1ccccc1)C(=O)[C@@H](Cc1ccc2c(c1)OCCO2)NC(=O)C1C[C@@H](O)CN1C(=O)c1cn(C)c2ccccc12 (stereo not given in full)	inhibition in vivo at 100 mg/kg	1
CN(Cc1ccccc1)C(=O)[C@@H](Cc1ccc2c(c1)CCCC2)NC(=O)C1C[C@@H](O)CN1C(=O)c1cn(C)c2ccccc12 (stereo not given in full)	inhibition in vivo at 100 mg/kg	87

State the measured inhibition in vivo at 100 mg/kg (Cavia porcellus) of CN(Cc1ccccc1)C(=O)[C@@H](Cc1ccc([N+](=O)[O-])cc1)NC(=O)C1C[C@@H](O)CN1C(=O)c1cn(C)c2ccccc12 (stereo not given in full) 39

State the measured inhibition in vivo at 100 mg/kg (Cavia porcellus) of CN(Cc1ccccc1)C(=O)[C@@H](Cc1ccc(NS(C)(=O)=O)cc1)NC(=O)C1C[C@@H](O)CN1C(=O)c1cn(C)c2ccccc12 (stereo not given in full) 0

State the measured inhibition in vivo at 100 mg/kg (Cavia porcellus) of CN(Cc1ccccc1)C(=O)[C@@H](Cc1cn(C=O)c2ccccc12)NC(=O)C1C[C@@H](O)CN1C(=O)c1cn(C)c2ccccc12 (stereo not given in full) 21

---

# tested.target: Substance-P receptor (Cavia porcellus, UniProt P30547)
# assay.name: In vitro binding affinity against substance P receptor using [3H]SP as radioligand in guinea pig lung membrane
# Format: cell membranes
# condition.description: read-out: IC50
readout: IC50 (nM)
# unit: nM | format: bare number

The cases that follow already have their IC50 on record.
molecule	units	IC50
CN(Cc1ccccc1)C(=O)[C@@H](Cc1ccccc1)NC(=O)C1C[C@@H](O)CN1C(=O)CCc1ccccc1 (some centres not stated)	nM	14
COc1ccc(C[C@@H](NC(=O)C2C[C@@H](O)CN2C(=O)c2cn(C)c3ccccc23)C(=O)N(C)Cc2ccccc2)cc1 (some centres not stated)	nM	7.6
CN(Cc1ccccc1)C(=O)[C@@H](Cc1ccc2c(c1)OCCO2)NC(=O)C1C[C@@H](O)CN1C(=O)c1cn(C)c2ccccc12 (some centres not stated)	nM	1.1

Indicate its recorded IC50; the molecule in question is CN(Cc1ccccc1)C(=O)[C@@H](Cc1cn(C=O)c2ccccc12)NC(=O)C1C[C@@H](O)CN1C(=O)c1cn(C)c2ccccc12 (some centres not stated) 3.5

Indicate its recorded IC50; the molecule in question is CN(Cc1ccccc1)C(=O)[C@@H](Cc1csc2ccccc12)NC(=O)C1C[C@@H](O)CN1C(=O)c1cn(C)c2ccccc12 (some centres not stated) 10.3

Indicate its recorded IC50; the molecule in question is CN(Cc1ccccc1)C(=O)[C@@H](Cc1ccccc1)NC(=O)C(CCCCN)NC(=O)c1c[nH]c2ccccc12 (some centres not stated) 14

Indicate its recorded IC50; the molecule in question is CN(Cc1ccccc1)C(=O)[C@@H](Cc1ccccc1)NC(=O)C1C[C@@H](O)CN1C(=O)Cc1ccccc1 (some centres not stated) 139
